# SYSTEM: GST-tagged human Aurora B(AurB)/His-tagged human INCENP complex proteins (Homo sapiens, UniProt Q96GD4)
# Construct: GST
# Sequence (Q96GD4 whole entry): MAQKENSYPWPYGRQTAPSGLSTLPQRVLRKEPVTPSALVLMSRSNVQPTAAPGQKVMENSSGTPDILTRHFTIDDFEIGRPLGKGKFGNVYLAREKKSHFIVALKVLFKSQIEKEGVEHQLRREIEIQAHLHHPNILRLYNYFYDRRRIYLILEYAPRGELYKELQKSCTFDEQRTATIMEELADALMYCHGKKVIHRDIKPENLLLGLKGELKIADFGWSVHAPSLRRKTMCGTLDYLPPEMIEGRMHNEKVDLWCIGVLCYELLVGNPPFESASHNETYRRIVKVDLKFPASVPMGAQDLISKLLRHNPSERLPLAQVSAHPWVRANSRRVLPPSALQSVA
# Sequence (Q9NQS7 803-916 partner limits assumed): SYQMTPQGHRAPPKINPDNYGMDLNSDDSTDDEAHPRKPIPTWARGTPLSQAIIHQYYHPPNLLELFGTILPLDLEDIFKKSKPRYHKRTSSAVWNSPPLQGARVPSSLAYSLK
# METHOD_SUMMARY: Aurora B inhibitory activity (Method A, IMAP assay kit)
# DETAILS: 40 μM ATP, 25° C., 45 minutes
pIC50: −log10 of the molar value.
MEASURED_PROPERTY: pIC50

Cn1nc([C@]2(Cc3cccc(Nc4cc[nH]n4)n3)CC[C@@H](Oc3cccc(Cl)c3F)CC2)oc1=O [Example 26] ... 6.10
Fc1c(Cl)cccc1O[C@H]1CC[C@](Cc2cccc(Nc3cc[nH]n3)n2)(c2nn[nH]n2)CC1 [Example 17] ... 6.46

(I) O=c1[nH]nc([C@]2(Cc3cccc(Nc4cc[nH]n4)n3)CC[C@@H](S(=O)(=O)c3cccc(Cl)c3Cl)CC2)o1 [Example 36]
(II) NC(=O)[C@]1(Cc2cccc(Nc3nccs3)n2)CC[C@@H](Oc2cccc(Cl)c2F)CC1 [Example 8]
Could you tell me which of these two has the smaller pIC50 figure? First: I Second: II Answer by quoting the chosen item's label. I
(I: 6.43, II: 6.82)

----------
# SYSTEM: GST-tagged human Aurora B(AurB)/His-tagged human INCENP complex proteins (Homo sapiens, UniProt Q96GD4)
# Construct: GST
# METHOD_SUMMARY: Aurora B inhibitory activity (Method A, IMAP assay kit)
# DETAILS: 40 μM ATP, 25° C., 45 minutes
pIC50: −log10 of the molar value.
MEASURED_PROPERTY: pIC50

Cl.O=C(O)[C@]1(Cc2cccc(Nc3nccs3)n2)CC[C@@H](Oc2cccc(Cl)c2Cl)CC1 [Example 6, hydrochloride] ... 7.43
CN(C)C(=O)[C@]1(Cc2cccc(Nc3cc[nH]n3)n2)CC[C@@H](Oc2cccc(Cl)c2F)CC1 [Example 13] ... < 6.00

compound CNC(=O)[C@]1(Cc2cccc(Nc3cc[nH]n3)n2)CC[C@@H](Oc2cccc(Cl)c2F)CC1 [Example 12] , pIC50 observed: < 6.00
